Attribute: pIC50
- System: HepG2 cells
- protocol_notes: Test Example 2: inhibition of apolipoprotein B secretion from HepG2 cells, ELISA (also used for metabolites in Test Example 8)
- Type: cell-based
- condition_parameters: Homo sapiens, 24 hours, apo B in supernatant by ELISA, read-out: Test Example 2 Inhibition of apo B secretion IC50
Here pIC50 is given on a logarithmic scale as minus log10 of the concentration in mol/L.

# compound_structure_string, experimental_system, pIC50
records = [
    ("CCOC(=O)C(CCOC(=O)c1ccc(NC(=O)c2ccccc2-c2ccc(C(F)(F)F)cc2)c(C)c1)(C(=O)OCC)c1ccccc1", "HepG2 cells", 7.24),
    ("CCCN(C)C(=O)c1cc(CC(=O)OCC(C(=O)NCC)(C(=O)NCC)c2ccccc2)ccc1NC(=O)c1ccccc1-c1ccc(C(F)(F)F)cc1", "HepG2 cells", 7.59),
    ("CCOC(=O)C(COC(=O)Cc1ccc(NC(=O)c2ccccc2-c2ccc(C(C)C)cc2)c(C(=O)N(C)C)c1)(C(=O)OCC)c1ccccc1", "HepG2 cells", 8.83),
    ("CCOC(=O)C(COC(=O)Cc1ccc(NC(=O)c2ccccc2-c2ccc(C(F)(F)F)cc2)c(C(=O)N(C)C)c1)(C(=O)OCC)c1ccsc1", "HepG2 cells", 9.36),
    ("CCOC(=O)C(COC(=O)Cc1ccc(NC(=O)c2ccccc2-c2ccc(C(F)(F)F)cc2)cc1)(C(=O)OCC)c1ccccn1", "HepG2 cells", 7.33),
]

Proceed to the following item.
Q: Reported pIC50, molecule `CCCOc1cc(CC(=O)OCC(C(=O)NCC)(C(=O)NCC)c2ccccc2)ccc1NC(=O)c1ccccc1-c1ccc(C(F)(F)F)cc1` : ____
Result: 9.14

---

Attribute: inhibition in vivo at 3 mg/kg
- Tested on: Syrian hamsters
- protocol_notes: Test Example 3: olive oil-loading test (inhibition of fat absorption, plasma TG)
- Format: in vivo
- condition_parameters: Mesocricetus auratus, po; 3 mg/kg p.o.; plasma TG 4 hours after olive oil; read-out: Test Example 3 Inhibition of fat absorption after olive oil-loading in Hamster Inhibition rate (%)
- Method: Syrian hamsters (9-11 weeks of age) under non-fasted conditions were used in the test. […] Plasma was recovered from the blood, and the amount of triglyceride (TG) in the plasma was determined by automatic analyzer (Hitachi Co.). […] Inhibition rate (%) was calculated from the data obtained on the basis of the following equation. […]
The figure you give is taken to be in %; do not add the unit.

The examples below pair each entry with its known result.
# compound_structure_string, inhibition in vivo at 3 mg/kg / %
records = [
    ("CCNC(=O)C(CCOC(=O)Cc1ccc(NC(=O)c2ccccc2-c2ccc(C(F)(F)F)cc2)c(C(=O)N(C)CC)c1)(C(=O)NCC)c1ccccc1", 81),
    ("CCNC(=O)C(CCOC(=O)Cc1ccc(NC(=O)c2ccccc2-c2ccc(C(F)(F)F)cc2)c(C(=O)N(C)C)c1)(C(=O)NCC)c1ccccc1", 78),
]

Q: Reported inhibition in vivo at 3 mg/kg, molecule `CCNC(=O)C(COC(=O)Cc1ccc(NC(=O)c2ccccc2-c2ccc(C(F)(F)F)cc2)c(C(=O)N(C)CC)c1)(C(=O)NCC)c1ccccc1` : ____
Result: 80

---

- System: HepG2 cells
- protocol_notes: Test Example 2: inhibition of apolipoprotein B secretion from HepG2 cells, ELISA (also used for metabolites in Test Example 8)
- Type: cell-based
- condition_parameters: Homo sapiens, 24 hours, apo B in supernatant by ELISA, read-out: Test Example 2 Inhibition of apo B secretion IC50
measure_name: IC50
Reply with a number, then the unit it belongs to.

The examples below pair each entry with its known result.
# compound, observed_result
measured = [
    ("CCOC(=O)C(COC(=O)Cc1ccc(NC(=O)c2ccccc2-c2ccc(C(F)(F)F)c(Cl)c2)c(C(=O)N(C)C)c1)(C(=O)OCC)c1ccccc1 [Example 2-62]", "0.37 nM"),
    ("CCNC(=O)C(COC(=O)Cc1ccc2c(c1)oc(=O)n2C(=O)c1ccccc1-c1ccc(C(F)(F)F)cc1)(C(=O)NCC)c1ccccc1 [Example 9-3]", "59 nM"),
    ("CCOC(=O)C(CCOC(=O)Cc1ccc(NC(=O)c2ccc(C(F)(F)F)cc2-c2ccc(C(F)(F)F)cc2)c(C(=O)N(C)C)c1)(C(=O)OCC)c1ccccc1 [Example 2-84]", "2.01 nM"),
]

Q: So what IC50 did CCOC(=O)C(COC(=O)Cc1ccc(NC(=O)c2cccc(Cl)c2-c2ccc(C(F)(F)F)cc2)c(C(=O)N(C)C)c1)(C(=O)OCC)c1ccccc1 [Example 2-79] get with HepG2 cells?
Result: 1.3 nM

Q: So what IC50 did CCNC(=O)C(COC(=O)Cc1ccc(NC(=O)c2sc(C)nc2-c2ccc(C(F)(F)F)cc2)cc1)(C(=O)NCC)c1ccccc1 [Example 1-75] get with HepG2 cells?
Result: 97 nM

Q: So what IC50 did CCOC(=O)C(COC(=O)Cc1ccc(NC(=O)c2c(C)cccc2-c2ccc(C(F)(F)F)cc2)c(C(=O)N(C)C)c1)(C(=O)OCC)c1ccccc1 [Example 2-86] get with HepG2 cells?
Result: 0.42 nM

Q: So what IC50 did CCNC(=O)C(CCOC(=O)Cc1ccc(NC(=O)c2ccccc2-c2ccc(C(F)(F)F)cc2)c(CC)c1)(C(=O)NCC)c1ccccc1 [Example 1-81] get with HepG2 cells?
Result: 0.49 nM

Q: So what IC50 did CCOC(=O)C(COC(=O)Cc1ccc(NC(=O)c2ccccc2-c2ccc(C(F)(F)F)cc2)cc1)(C(=O)OCC)C1CCCCC1 [Example 1-31] get with HepG2 cells?
Result: 61 nM

Q: So what IC50 did O=C(Cc1ccc(NC(=O)c2ccccc2-c2ccc(C(F)(F)F)cc2)cc1)OCC(C(=O)NC1CCCCC1)(C(=O)NC1CCCCC1)c1ccccc1 [Example 1-23] get with HepG2 cells?
Result: 63 nM

Q: So what IC50 did CCOC(=O)C(COC(=O)Cc1ccc(NC(=O)c2ccccc2-c2ccc(C(F)(F)F)cc2)c(C(=O)N(C)C)c1)(C(=O)OCC)C1CCCCC1 [Example 2-41] get with HepG2 cells?
Result: 1.2 nM

---

- System: HepG2 cells
- protocol_notes: Test Example 2: inhibition of apolipoprotein B secretion from HepG2 cells, ELISA (also used for metabolites in Test Example 8)
- Type: cell-based
- condition_parameters: Homo sapiens, 24 hours, apo B in supernatant by ELISA, read-out: Test Example 2 Inhibition of apo B secretion IC50
- Description: Inhibition of Apolipoprotein B Secretion from HepG2 Cells […] ELISA was carried out as follows. […] The reaction was stopped by addition of 2% oxalic acid (100 μL/well), and absorbency at 405 nm was measured. Concentration of apo B in the sample was calculated on the basis of a standard curve of the standard. Inhibition rate (%) was calculated from the assayed values in accordance with the following equation. […]
measure_name: IC50 (nM)
The figure you give is taken to be in nM; do not add the unit.

The examples below pair each entry with its known result.
# compound, measure_name, observed_result
data = [
    ("CCOC(=O)C(COC(=O)Cc1cc(C(=O)N(C)C)c(NC(=O)c2ccccc2-c2ccc(C(F)(F)F)cc2)c(Br)c1F)(C(=O)OCC)c1ccccc1 [Example 2-67]", "IC50", 43),
    ("CCOC(=O)C(COC(=O)Cc1ccc(NC(=O)c2ccccc2-c2ccc(C(F)(F)F)cc2)c(C(=O)N(C)C)c1)(C(=O)OCC)c1cccc(Cl)c1 [Example 2-72]", "IC50", 0.95),
]

Proceed to the following item.
Q: Reported IC50, compound CCNC(=O)C(COC(=O)Cc1ccc(NC(=O)c2ccccc2-c2ccc(Cl)cc2)cc1)(C(=O)NCC)c1ccccc1 [Example 1-70] : ____
Result: 270

---

- Test system: HepG2 cells
- protocol_notes: Test Example 2: inhibition of apolipoprotein B secretion from HepG2 cells, ELISA (also used for metabolites in Test Example 8)
- Format: cell-based
- condition_parameters: Homo sapiens, 24 hours, apo B in supernatant by ELISA, read-out: Test Example 2 Inhibition of apo B secretion IC50
measure_name: log10(IC50) (log10 of the value in nM)
// stored as log10 of IC50 expressed in nM

The examples below pair each entry with its known result.
# molecule, log10(IC50)
measured = [
    ("CCOC(=O)C(COC(=O)Cc1ccc(NC(=O)c2ccccc2-c2ccc(C(F)(F)F)cc2)cc1)(C(=O)OCC)c1cccnc1 [Example 1-38]", 2.51),
    ("CCOC(=O)C(COC(=O)Cc1ccc(NC(=O)c2ccccc2-c2ccc(C(F)(F)F)cc2)cc1C)(C(=O)OCC)c1ccccc1 [Example 1-27]", 1.41),
    ("CCCNC(=O)C(CCOC(=O)Cc1ccc(NC(=O)c2ccccc2-c2ccc(C(F)(F)F)cc2)cc1)(C(=O)NCCC)c1ccccc1 [Example 1-49]", 0.72),
    ("CCOC(=O)C(COC(=O)Cc1ccc(NC(=O)c2cccc(F)c2-c2ccc(C(F)(F)F)cc2)c(C(=O)N(C)C)c1)(C(=O)OCC)c1ccccc1 [Example 2-80]", -0.10),
    ("CCOC(=O)C(COC(=O)Cc1ccc(NC(=O)c2ccccc2Oc2ccccc2)c(C(=O)N(C)C)c1)(C(=O)OCC)c1ccccc1 [Example 2-45]", 1.59),
    ("CCOC(=O)C(COC(=O)Cc1ccc(NC(=O)c2ccccc2-c2ccc(C(F)(F)F)cc2)c(C(F)(F)F)c1)(C(=O)OCC)c1ccccc1 [Example 1-40]", 0.32),
]

Proceed to the following item.
Q: Reported log10(IC50), molecule CCOC(=O)C(COC(=O)Cc1ccc(NC(=O)c2ccccc2-c2ccc(C(F)(F)F)cc2)c(CC)c1)(C(=O)OCC)c1ccccc1 [Example 1-78] : ____
Result: 1.04
